The following molecules are shown together with reported log10 of IC50 values.
Target: Bromodomain-containing protein 4 (Homo sapiens, UniProt O60885)
Assay: Inhibition of BRD4 in human LNCAP cells assessed as down regulation of nuclear AR level by immunofluorescence assay
Format: cell-based
Scale type: logarithmic (base 10). Underlying IC50 unit: nM.

Would you please look over these solved cases?
molecule | subject-of-test | log10 of IC50
C[C@@H]1C(=O)N(C)CCN1CCOc1ccc(C2CCN(c3ccc4nncn4n3)CC2)cc1 | Bromodomain-containing protein 4 (Homo sapiens, UniProt O60885) | 3.20
C[C@@H]1C(=O)N(C)CCN1CCOc1ccc(C2CCN(c3ccc4nnc(Cl)n4n3)CC2)cc1 | Bromodomain-containing protein 4 (Homo sapiens, UniProt O60885) | 1.40
COc1nnc2ccc(N3CCC(c4ccc(OCCN5CCN(C)C(=O)[C@H]5C)cc4)CC3)nn12 [AZD-5153] | Bromodomain-containing protein 4 (Homo sapiens, UniProt O60885) | 1.30
C[C@@H]1C(=O)N(C)CCN1CCOc1ccc(C2CCN(c3ccc4nnc(C(F)(F)F)n4n3)CC2)cc1 | Bromodomain-containing protein 4 (Homo sapiens, UniProt O60885) | 1.60
CSc1nnc2ccc(N3CCC(c4ccc(OCCN5CCN(C)C(=O)[C@H]5C)cc4)CC3)nn12 | Bromodomain-containing protein 4 (Homo sapiens, UniProt O60885) | 1.40

Form field: reported log10 of IC50 of CN1CCN(CCOc2ccc(C3CCN(c4ccc5nnc(C(F)(F)F)n5n4)CC3)cc2)CC1=O
2.50

Also check C[C@@H]1C(=O)N(C)CCN1CCOc1ccc(C2CCN(c3ccc4nnc(N(C)C)n4n3)CC2)cc1
1.40

---

Biological target: Bromodomain-containing protein 3 (Homo sapiens)
Sequence (Q15059 whole entry): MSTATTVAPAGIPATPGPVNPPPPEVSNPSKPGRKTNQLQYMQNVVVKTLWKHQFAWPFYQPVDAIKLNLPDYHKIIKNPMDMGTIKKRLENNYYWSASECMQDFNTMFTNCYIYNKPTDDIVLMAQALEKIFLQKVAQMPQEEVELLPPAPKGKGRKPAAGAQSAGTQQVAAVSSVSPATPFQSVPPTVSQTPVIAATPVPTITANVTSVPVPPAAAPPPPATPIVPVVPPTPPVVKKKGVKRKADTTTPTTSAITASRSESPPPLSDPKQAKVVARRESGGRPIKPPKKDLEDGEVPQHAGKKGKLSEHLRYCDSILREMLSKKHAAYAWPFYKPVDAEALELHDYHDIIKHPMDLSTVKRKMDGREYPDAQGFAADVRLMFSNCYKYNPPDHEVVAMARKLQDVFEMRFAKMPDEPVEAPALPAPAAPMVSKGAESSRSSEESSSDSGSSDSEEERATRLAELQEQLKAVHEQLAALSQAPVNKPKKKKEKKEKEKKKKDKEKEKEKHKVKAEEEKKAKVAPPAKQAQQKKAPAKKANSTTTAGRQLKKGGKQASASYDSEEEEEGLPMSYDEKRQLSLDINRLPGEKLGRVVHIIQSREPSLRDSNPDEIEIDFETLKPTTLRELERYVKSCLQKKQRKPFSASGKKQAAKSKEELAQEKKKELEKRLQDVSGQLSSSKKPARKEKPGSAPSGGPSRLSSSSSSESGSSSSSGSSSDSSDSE
Assay: Inhibition of human BRD3 bromodomain 1 expressed in bacterial expression system
property-label: Ki (nM)
Report the value in nM with no unit label.

Which Ki reading was recorded for the compound COc1nnc2ccc(N3CCC(c4ccc(OCCN5CCN(C)C(=O)[C@H]5C)cc4)CC3)nn12 ?
63.1

---

Assay: Plasma clearance in dog
Format: ADME, Canis lupus familiaris
property-label: clearance (mL/min/kg)
Hi! Could you send only the number? It should be in mL/min/kg, unit omitted.

chemical-smiles | property-label | quantitative-readout
COc1nnc2ccc(N3CCC(c4ccc(N5CC(CN6CCN(C)C(=O)[C@H]6C)C5)cc4)CC3)nn12 | clearance | 5
COc1nnc2ccc(N3CCC(c4ccc(OCCN5CCN(C)C(=O)[C@H]5C)cc4)CC3)nn12 | clearance | 6
COc1nnc2ccc(N3CCC(c4ccc(OCCN5[C@H](C)CN(C(C)=O)C[C@@H]5C)cc4)CC3)nn12 | clearance | 11

Fill in: clearance of COc1nnc2ccc(N3CCC(c4ccc(CCN5CCN(C)C(=O)[C@H]5C)cc4)CC3)nn12 is ___
3

---

Target: Bromodomain-containing protein 4 (Homo sapiens, UniProt O60885, N140A)
property-label: pKi
Note on units: pKi is unitless, being -log10 of a concentration expressed in mol/L.

chemical-smiles | pKi
C[C@@H]1C(=O)N(C)CCN1CCOc1ccc(C2CCN(c3ccc4nnc(N(C)C)n4n3)CC2)cc1 | 6.50

Fill in the blank: the reported pKi of CSc1nnc2ccc(N3CCC(c4ccc(OCCN5CCN(C)C(=O)[C@H]5C)cc4)CC3)nn12 is ____.
6.90

// query: CN1CCN(CCOc2ccc(C3CCN(c4ccc5nnc(C(F)(F)F)n5n4)CC3)cc2)C(=O)C1
5.10

Field entry: Cc1nnc2ccc(N3CCC(c4ccc(OCCN5CCN(C)C(=O)[C@H]5C)cc4)CC3)nn12
6.70

Same lookup for COc1nnc2ccc(N3CCC(c4ccc(OCCN5[C@H](C)CN(C(C)=O)C[C@@H]5C)cc4)CC3)nn12 , please.
7.80

// query: COc1nnc2ccc(N3CCC(c4ccc(OCCN5CCN(C)C(=O)[C@H]5C)cc4)CC3)nn12
6.80

Then COc1nnc2ccc(N3CCC(c4ccc(N5CCC(N6CCN(C)C(=O)[C@H]6C)CC5)cc4)CC3)nn12 ?
6.50

Query COc1nnc2ccc(N3CCC(c4ccc(OCCCN5CCN(C)C(=O)[C@H]5C)cc4)CC3)nn12 next
7.20

---

Target: UniProt Q09472
Sequence (Q09472 whole entry): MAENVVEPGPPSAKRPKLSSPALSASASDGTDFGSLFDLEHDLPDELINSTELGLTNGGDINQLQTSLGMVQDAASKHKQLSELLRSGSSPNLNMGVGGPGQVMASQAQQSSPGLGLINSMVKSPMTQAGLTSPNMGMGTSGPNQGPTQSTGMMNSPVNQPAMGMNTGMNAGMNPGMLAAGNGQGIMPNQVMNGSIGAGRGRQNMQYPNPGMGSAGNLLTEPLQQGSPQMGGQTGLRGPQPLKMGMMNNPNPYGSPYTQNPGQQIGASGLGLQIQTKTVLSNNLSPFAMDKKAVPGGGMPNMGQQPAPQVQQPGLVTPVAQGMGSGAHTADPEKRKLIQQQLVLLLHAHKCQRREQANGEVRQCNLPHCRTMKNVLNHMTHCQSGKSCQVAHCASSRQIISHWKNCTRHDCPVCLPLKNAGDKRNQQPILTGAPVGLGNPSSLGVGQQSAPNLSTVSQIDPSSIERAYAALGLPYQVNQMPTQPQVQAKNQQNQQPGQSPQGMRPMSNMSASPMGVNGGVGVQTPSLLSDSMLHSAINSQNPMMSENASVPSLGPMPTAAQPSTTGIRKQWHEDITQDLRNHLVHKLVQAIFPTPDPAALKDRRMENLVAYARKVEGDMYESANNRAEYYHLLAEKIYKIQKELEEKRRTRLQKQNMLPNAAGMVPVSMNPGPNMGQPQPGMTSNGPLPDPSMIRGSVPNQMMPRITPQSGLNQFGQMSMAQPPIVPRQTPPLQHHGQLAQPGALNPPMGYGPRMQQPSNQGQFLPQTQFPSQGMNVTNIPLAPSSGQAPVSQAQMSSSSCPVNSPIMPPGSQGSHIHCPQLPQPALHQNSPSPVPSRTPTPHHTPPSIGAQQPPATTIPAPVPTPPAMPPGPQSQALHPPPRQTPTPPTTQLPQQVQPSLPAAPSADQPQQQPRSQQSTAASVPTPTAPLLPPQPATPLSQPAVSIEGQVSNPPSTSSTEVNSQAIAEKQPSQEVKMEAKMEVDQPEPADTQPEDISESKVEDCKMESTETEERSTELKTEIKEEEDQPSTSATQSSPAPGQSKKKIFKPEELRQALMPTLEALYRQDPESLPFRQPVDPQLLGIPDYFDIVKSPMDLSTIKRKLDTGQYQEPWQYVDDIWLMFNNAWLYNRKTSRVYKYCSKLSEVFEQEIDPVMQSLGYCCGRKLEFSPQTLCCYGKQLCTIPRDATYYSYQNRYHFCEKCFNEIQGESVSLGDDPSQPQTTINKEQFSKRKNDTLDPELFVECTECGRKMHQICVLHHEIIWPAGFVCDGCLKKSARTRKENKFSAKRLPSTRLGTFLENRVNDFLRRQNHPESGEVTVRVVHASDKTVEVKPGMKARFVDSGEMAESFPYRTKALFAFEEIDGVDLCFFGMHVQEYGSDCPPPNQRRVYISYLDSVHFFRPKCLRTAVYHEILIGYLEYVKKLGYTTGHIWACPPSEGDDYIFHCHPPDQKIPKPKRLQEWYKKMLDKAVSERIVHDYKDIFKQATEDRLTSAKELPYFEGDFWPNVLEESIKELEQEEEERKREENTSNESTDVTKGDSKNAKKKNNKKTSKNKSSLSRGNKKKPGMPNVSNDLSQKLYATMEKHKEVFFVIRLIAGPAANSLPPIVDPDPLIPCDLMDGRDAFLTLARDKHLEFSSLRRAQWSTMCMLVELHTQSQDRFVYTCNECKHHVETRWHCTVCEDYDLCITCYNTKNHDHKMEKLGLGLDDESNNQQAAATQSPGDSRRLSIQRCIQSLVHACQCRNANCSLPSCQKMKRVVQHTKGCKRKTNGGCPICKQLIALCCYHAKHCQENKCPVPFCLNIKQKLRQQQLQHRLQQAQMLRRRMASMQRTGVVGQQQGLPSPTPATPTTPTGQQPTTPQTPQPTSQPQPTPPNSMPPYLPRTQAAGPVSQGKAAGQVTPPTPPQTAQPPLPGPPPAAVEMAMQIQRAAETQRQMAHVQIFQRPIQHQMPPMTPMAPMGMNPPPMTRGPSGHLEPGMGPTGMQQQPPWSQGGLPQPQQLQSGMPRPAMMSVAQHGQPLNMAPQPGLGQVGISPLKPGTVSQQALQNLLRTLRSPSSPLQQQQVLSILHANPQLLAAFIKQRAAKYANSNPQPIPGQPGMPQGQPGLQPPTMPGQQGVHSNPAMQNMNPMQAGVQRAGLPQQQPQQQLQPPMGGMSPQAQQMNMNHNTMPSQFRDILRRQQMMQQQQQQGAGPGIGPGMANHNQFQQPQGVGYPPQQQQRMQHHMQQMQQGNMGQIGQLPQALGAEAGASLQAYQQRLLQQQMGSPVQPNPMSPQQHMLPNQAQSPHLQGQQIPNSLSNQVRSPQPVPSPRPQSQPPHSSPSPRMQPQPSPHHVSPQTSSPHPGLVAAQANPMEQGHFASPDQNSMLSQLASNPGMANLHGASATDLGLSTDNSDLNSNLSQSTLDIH
Assay: Inhibition of human EP300 expressed in bacterial expression system
property-label: Ki

Record request: Ki value, item COc1nnc2ccc(N3CCC(c4ccc(OCCN5CCN(C)C(=O)[C@H]5C)cc4)CC3)nn12
< 10 µM

---

Each entry below carries its recorded pKi.
Biological target: Bromodomain-containing protein 4 (Homo sapiens, UniProt O60885, N140A)
pKi here: minus log base 10 of the concentration, concentration in moles per litre.

Here's what some known entries look like.
chemical-smiles | property-label | quantitative-readout
COc1nnc2ccc(N3CCC(c4ccc(N5CC(CN6CCN(C)C(=O)[C@H]6C)C5)cc4)CC3)nn12 | pKi | 7.00
COc1nnc2ccc(N3CCC(c4ccc(OCCN5C[C@@H](C)N(C(C)=O)[C@@H](C)C5)cc4)CC3)nn12 | pKi | 6.80
C[C@@H]1C(=O)N(C)CCN1CCOc1ccc(C2CCN(c3ccc4nnc(Cl)n4n3)CC2)cc1 | pKi | 6.50
C[C@@H]1C(=O)N(C)CCN1CCOc1ccc(C2CCN(c3ccc4nnc(C(F)(F)F)n4n3)CC2)cc1 | pKi | 7.20

Give its pKi value. Item: C[C@@H]1C(=O)N(C)CCN1CCOc1ccc(C2CCN(c3ccc4nncn4n3)CC2)cc1
5.60

Try the compound COc1nnc2ccc(N3CCC(c4ccc(OCCN5[C@H](C)CN(C)C(=O)[C@H]5C)cc4)CC3)nn12
6.60

Then this compound: COc1nnc2ccc(N3CCC(c4ccc(OCCCCN5CCN(C)C(=O)[C@H]5C)cc4)CC3)nn12
7.00

How about COc1nnc2ccc(N3CCC(c4ccc(OCCN5CCN(C)C(=O)[C@@H]5C)cc4)CC3)nn12 ?
6.00

---

Test: Thermodynamic solubility of compound in pH 7.4 solution
Type: physicochemical
Details: buffer, read-out: Therm_solubility
property-label: solubility thermodynamic (µM)
Entry rule: numbers only, all in µM.

Solved cases below.
chemical-smiles | property-label | quantitative-readout
CN1CCN(CCOc2ccc(C3CCN(c4ccc5nnc(C(F)(F)F)n5n4)CC3)cc2)C(=O)C1 | solubility thermodynamic | 52
COc1nnc2ccc(N3CCC(c4ccc(OCCN5C[C@@H](C)N(C(C)=O)[C@@H](C)C5)cc4)CC3)nn12 | solubility thermodynamic | 280
C[C@@H]1C(=O)N(C)CCN1CCOc1ccc(C2CCN(c3ccc4nncn4n3)CC2)cc1 | solubility thermodynamic | 1000
COc1nnc2ccc(N3CCC(c4ccc(OCCN5CCN(C)C(=O)[C@@H]5C)cc4)CC3)nn12 | solubility thermodynamic | 900

Now consider a different compound.
Which solubility thermodynamic is listed for Cc1nnc2ccc(N3CCC(c4ccc(OCCN5CCN(C)C(=O)[C@H]5C)cc4)CC3)nn12 ?
670

---

Target: Bromodomain testis-specific protein (Homo sapiens)
Assay: Inhibition of human BRDT bromodomain 2 expressed in bacterial expression system
property-label: pKi
Worth noting: pKi values are minus log10 of concentrations stated in mol/L.

// lookup pKi for COc1nnc2ccc(N3CCC(c4ccc(OCCN5CCN(C)C(=O)[C@H]5C)cc4)CC3)nn12
6.30

---

The following compounds are shown together with reported pKi values.
Target: Bromodomain-containing protein 4 (Homo sapiens, UniProt O60885)
Assay: Displacement of Alexa647-labeled JQ1 derivative from wild type BRD4 tandem domain (44 to 460 residues) (unknown origin) incubated for 1 hr by fluorescence polarization assay
// pKi here means minus log10 of the molar concentration (mol/L)

Record excerpt, results attached:
chemical-smiles | quantitative-readout
COc1nnc2ccc(N3CCC(c4ccc(OCCN5CCN(C)C(=O)[C@@H]5C)cc4)CC3)nn12 | 6.90
CN1CCN(CCOc2ccc(C3CCN(c4ccc5nnc(C(F)(F)F)n5n4)CC3)cc2)C(=O)C1 | 5.60
COc1nnc2ccc(N3CCC(c4ccc(OCCCN5CCN(C)C(=O)[C@H]5C)cc4)CC3)nn12 | 8.40
C[C@@H]1C(=O)N(C)CCN1CCOc1ccc(C2CCN(c3ccc4nnc(C(F)(F)F)n4n3)CC2)cc1 | 8.10
COc1nnc2ccc(N3CCC(c4ccc(OCCN5[C@H](C)CN(C)C(=O)[C@H]5C)cc4)CC3)nn12 | 8.10

Fill in the blank: the reported pKi of COc1nnc2ccc(N3CCC(c4ccc(OCCCCN5CCN(C)C(=O)[C@H]5C)cc4)CC3)nn12 is ____.
8.20

Same for COc1nnc2ccc(N3CCC(c4ccc(N5CC(N6CCN(C)C(=O)[C@H]6C)C5)cc4)CC3)nn12
7.20

Same read-out for COc1nnc2ccc(N3CCC(c4ccc(OCCN5C[C@@H](C)N(C(C)=O)[C@@H](C)C5)cc4)CC3)nn12 ?
8.30

Consider next the compound C[C@@H]1C(=O)N(C)CCN1CCOc1ccc(C2CCN(c3ccc4nnc(Cl)n4n3)CC2)cc1 in the same way.
7.90

Subsequent entry: Cc1nnc2ccc(N3CCC(c4ccc(OCCN5CCN(C)C(=O)[C@H]5C)cc4)CC3)nn12
7.80

What about COc1nnc2ccc(N3CCC(c4ccc(N5CC(CN6CCN(C)C(=O)[C@H]6C)C5)cc4)CC3)nn12 ?
8.00

Next compound up: CN1CCN(CCOc2ccc(C3CCN(c4ccc5nnc(C(F)(F)F)n5n4)CC3)cc2)CC1=O
6.70

Thanks! And COc1nnc2ccc(N3CCC(c4ccc(CCN5CCN(C)C(=O)[C@H]5C)cc4)CC3)nn12 ?
8.50
